# Test system: P. falciparum Dd2 (PfLuc) line expressing firefly luciferase, asexual blood stage
# assay.overview: microbe, parasite or virus in culture
# Format: cell-based, Plasmodium falciparum
# recorded.conditions: Plasmodium falciparum, DD2; 11-pt dose response, 96hr; read-out: CDD P. falciparum Luciferase ABS 11-pt Reconfirmation Dose Response (96hr): Maximum inhibition (%)

compound | measured.target | Emax, %
COc1ccc(NC(=O)Cn2nc(C)c(C(C)=O)c2C)cc1 | P. falciparum Dd2 (PfLuc) line expressing firefly luciferase, asexual blood stage | 92.8
Cn1ccnc1CN(Cc1ccccn1)Cc1ccccc1Cl | P. falciparum Dd2 (PfLuc) line expressing firefly luciferase, asexual blood stage | 100
CN(CCCO)Cc1cc(Cl)ccc1OCC(O)CN1CCCCCC1 (stereo not drawn) | P. falciparum Dd2 (PfLuc) line expressing firefly luciferase, asexual blood stage | 101

---

# Test system: P. falciparum Dd2
# assay.overview: SYBR green I asexual blood stage proliferation assay (96 h)
# Assay type: cell-based, Plasmodium falciparum
# recorded.conditions: Plasmodium falciparum, DD2; Sybr Green I, 11-pt dose response, 96hr; read-out: CDD P. falciparum Sybr Green I ABS 11-pt Reconfirmation Dose Response (96hr): Maximum inhibition (%)

compound | measured.target | unit.symbol | Emax
Cc1cnn(CCNCc2nccn2Cc2ccccc2)c1 | P. falciparum Dd2 | % | 51.3
Cc1ccc2[nH]c(-c3cn(C4CCNCC4)nn3)nc2c1C | P. falciparum Dd2 | % | 79.6
CC(C)Nc1cc(-c2c[nH]nc2C2CCN(C(=O)C3CC3)C2)ccn1 (centres unmarked) | P. falciparum Dd2 | % | 76.9
NCC1[C@H]2CN(Cc3cccc(Cl)c3)C[C@@H]12 (some centres unmarked) | P. falciparum Dd2 | % | 90.7
CCCOc1ccc2ccccc2c1CN1CC[C@@]2(O)CCNC[C@H]2C1 | P. falciparum Dd2 | % | 96.5
COc1ccc(-c2ccccc2CCN)c(OC)c1OC | P. falciparum Dd2 | % | 89.5
CN[C@@H]1CCC[C@@H](Oc2ccccc2Oc2ccc(C)cc2)[C@@H]1O | P. falciparum Dd2 | % | 99.2
COc1ccc(CCC(=O)NCCN2CCC(c3cccs3)CC2)cc1 | P. falciparum Dd2 | % | 71.9
COc1ccc(C)cc1CN1CCC(c2cc3ncccc3cn2)CC1 | P. falciparum Dd2 | % | 101
Cc1ccc(Oc2cc(F)ccc2O[C@@H]2CCC[C@@H](N)[C@H]2O)cc1 | P. falciparum Dd2 | % | 95.9
O=C(Nc1nccs1)C1CCCN1Cc1ccccn1 (centres unmarked) | P. falciparum Dd2 | % | 96.4
CC(C)(C)C(=O)NCCNCc1ccc(Cl)c2cccnc12 | P. falciparum Dd2 | % | 64.4
CC(C)CNc1cc(-c2c[nH]nc2C2CCN(C(=O)C3CC3)C2)ccn1 (centres unmarked) | P. falciparum Dd2 | % | 50.9
Clc1ccccc1C1(c2ccnc(-c3ccncc3)n2)CCNCC1 | P. falciparum Dd2 | % | 98.9
Cc1nn(C)cc1C1=NS(=O)(=O)N(C)C(C(=O)Nc2ccc(Cl)cc2)=C1 | P. falciparum Dd2 | % | 98.7
Cc1cc(Br)cnc1NCCN1CCC(N(C)C)CC1 | P. falciparum Dd2 | % | 92.7
CN1CCN(Cc2ccccc2Oc2nccc3occc23)CC1 | P. falciparum Dd2 | % | 63.4
Cc1nc[nH]c1CN(C)CC1CCCN(CCc2ccc(Cl)cc2)C1 (centres unmarked) | P. falciparum Dd2 | % | 98.8
CN(C)[C@@H]1CCN(c2ncc(F)cn2)[C@H]1Cc1ccccc1 | P. falciparum Dd2 | % | 74.6
CCOc1cccc(CN2CCCC(Nc3ccc(F)cc3)C2)c1O (centres unmarked) | P. falciparum Dd2 | % | 98.6
CNc1nc(C)cc(NC2CCCN(C3Cc4ccccc4C3)C2)n1 (centres unmarked) | P. falciparum Dd2 | % | 87
Fc1cccc(C(NCc2ncc[nH]2)c2ccccn2)c1 (centres unmarked) | P. falciparum Dd2 | % | 82.6
CN(Cc1nccs1)c1nc(-c2ccccn2)nc2c1CCNCC2 | P. falciparum Dd2 | % | 68.8
COCCN1CCC2(CC1)CC(NCc1ccc(C)s1)c1ccccc12 (centres unmarked) | P. falciparum Dd2 | % | 82.4
O=C(CN1CCCC(c2ccn[nH]2)C1)Nc1nc2c(s1)CCC2 (centres unmarked) | P. falciparum Dd2 | % | 73.2
NCC1(c2cccc(Br)c2)CCOCC1 | P. falciparum Dd2 | % | 76.8
CN(Cc1ccsc1)c1nc(-c2ccccn2)nc2c1CCNCC2 | P. falciparum Dd2 | % | 78.7
c1ccc(N2CCCC3(CCN(Cc4ccsc4)C3)C2)nc1 (centres unmarked) | P. falciparum Dd2 | % | 66.8
CC(NCC1CCN(CCO)CC1)c1cccc(Cl)c1 (centres unmarked) | P. falciparum Dd2 | % | 92.1
Fc1cnc(N2CCCC3(CCN(Cc4ccsc4)C3)C2)nc1 (centres unmarked) | P. falciparum Dd2 | % | 70.7
NCC1Cc2cc(-c3nccc(N4CCC(O)CC4)n3)cc(Cl)c2O1 (centres unmarked) | P. falciparum Dd2 | % | 83.9
Cc1cccc(C)c1Nc1noc2c1CN(C(=O)c1ccn(C)n1)CC2 | P. falciparum Dd2 | % | 95.5
Cc1cccc(Nc2cccc(C3CCCN(Cc4ncc[nH]4)C3)n2)n1 (centres unmarked) | P. falciparum Dd2 | % | 92.2
Cc1n[nH]cc1CNC1(c2ccc(F)cc2)CCCC1 | P. falciparum Dd2 | % | 59
c1ccc(-c2nc3c(c(NCc4n[nH]c5c4CCC5)n2)CCNC3)cc1 | P. falciparum Dd2 | % | 98.2
CC(C)(C)C(=O)N1C[C@H](c2ccsc2)[C@H]2CN(C3CCCCC3)CC[C@H]21 | P. falciparum Dd2 | % | 74.2
CN1CCC(C2CCN(Cc3cccc(-n4cccn4)c3)CC2)C1 (centres unmarked) | P. falciparum Dd2 | % | 94.8
Cc1ccc(C2(CN3CCN(Cc4cnc(C)n4C)CC3)CC2)cc1 | P. falciparum Dd2 | % | 88.5

---

# measured.target: recombinant firefly luciferase (Photinus pyralis)
# Sequence (P08659 whole entry): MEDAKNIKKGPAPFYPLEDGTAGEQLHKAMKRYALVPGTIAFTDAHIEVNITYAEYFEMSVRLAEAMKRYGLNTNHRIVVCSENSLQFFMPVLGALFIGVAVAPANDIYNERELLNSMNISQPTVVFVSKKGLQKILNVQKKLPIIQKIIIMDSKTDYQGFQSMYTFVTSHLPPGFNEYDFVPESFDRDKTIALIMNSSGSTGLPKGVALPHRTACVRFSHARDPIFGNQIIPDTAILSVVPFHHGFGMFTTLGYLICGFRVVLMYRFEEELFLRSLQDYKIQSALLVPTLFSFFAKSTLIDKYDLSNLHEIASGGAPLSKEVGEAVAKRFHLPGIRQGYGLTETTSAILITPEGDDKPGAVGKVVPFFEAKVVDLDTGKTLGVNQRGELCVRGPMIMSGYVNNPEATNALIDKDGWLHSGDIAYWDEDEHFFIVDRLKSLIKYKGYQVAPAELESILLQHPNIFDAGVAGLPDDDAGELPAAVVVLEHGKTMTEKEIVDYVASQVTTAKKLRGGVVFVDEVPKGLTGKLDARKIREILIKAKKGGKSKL
# assay.overview: biochemical
# recorded.conditions: dose response; read-out: rLuc inhibition dose response: IC50
pIC50: −log10 of the molar value.

compound | pIC50
c1ccc(OCCNc2ncnc3sc4c(c23)CCNC4)cc1 | < 4.60
Cn1cncc1CN1CCCC1c1cncc(Oc2ccc(Cl)cc2)n1 (stereo not drawn) | < 4.60
Cc1ccoc1C(=O)NC1CCN(Cc2csc3c(F)cccc23)CC1 | < 4.60
CC(=O)Nc1ncc(S(=O)(=O)Nc2ccc3c(c2)OCCO3)s1 | < 4.60
CC(C)(C)NC(=O)N1CCC(Oc2ccc(C(F)(F)F)cn2)CC1 | < 4.60
CCS(=O)(=O)N1[CH]Cc2ccc(NC(=O)Nc3cccc(C#N)c3)cc21 | < 4.60
NC(=O)c1ccc(N2CCCCC2)c(NC(=O)c2ccc(F)cc2F)c1 | < 4.60
CCOc1ccc(S(=O)(=O)Nc2cnc(OC)nc2OC)cc1 | < 4.60
CC(C)CN1CCCC1c1ccc(C(=O)Nc2cccnc2)s1 (stereo not drawn) | < 4.60
Cc1[nH]/c(=N\C(=O)c2csc(NC3CCCC3)n2)sc1C | 4.35
CC(=O)c1c(F)cccc1N1CCC(Cc2cccnc2)CC1 | < 4.60
CCOc1ccc(CN2CCCC(c3cc4ncccc4[nH]3)C2)cc1 (stereo not drawn) | < 4.60
O=C([C@H]1C[C@@H]2CCN(c3cccc(F)c3)C[C@H]2O1)N1CCCC1 | < 4.60
Nc1nccc(N2CCCC(CO)(CCOc3ccccc3)C2)n1 (stereo not drawn) | < 4.60
Cn1cc(NS(=O)(=O)c2ccc(OC(F)(F)F)cc2)ccc1=O | < 4.60
O=C(NC1CCCC1)O[C@H]1COCCN(c2nc3ccccc3s2)C1 | < 4.60
COc1cc(CN(C)C(=O)Cc2c(C)nn(C)c2C)ccc1OC(F)F | < 4.60
Cc1nc(C(=O)NC2CCN(CCOc3ccc(Br)cc3)CC2)cs1 | < 4.60
CCCc1cc(=O)[nH]c(-n2nc(C3CC3)cc2N)n1 | < 4.60
CC(C)Cn1ccc2c(NC(=O)c3n[nH]c4c3CCC4)cccc21 | < 4.60
Cc1cnc(NC(=O)c2csc(NC3CCCC3)n2)s1 | 4.61
CCc1c(C)nc(-n2nc(C3CC3)cc2NC(C)=O)[nH]c1=O | < 4.30
O=c1c2sccc2nc2n1CCN(Cc1ccccc1C(F)(F)F)CC2 | < 4.60
CC1(c2ccccc2)CCCN(Cc2cncn2C2CCCC2)C1 (stereo not drawn) | < 4.60
CC(C)(C)n1ncc2c1CCCC2NCc1ccc2c(c1)OCCO2 (stereo not drawn) | 4.82
CCc1cc(=O)[nH]c(-n2nc(C3CC3)cc2NC(=O)C2CC2)n1 | < 4.60
COc1cccc(CN2CCc3nc(C(=O)NCC(C)C)sc3CC2)c1 | < 4.60
Cc1[nH]/c(=N\C(=O)c2csc(NCC(C)C)n2)sc1C | 5.02
CCc1ccc(-c2ncc3c(n2)N(C)CCN(CCN(C)C)C3=O)cc1 | < 4.60
CCS(=O)(=O)N1CCc2ccc(NC(=O)Nc3cccc(C)c3)cc21 | < 4.30
